Test system: HOP-92
Assay: NCI tumour cell line growth inhibition, 48 h
The source made the active and inactive calls. No stated cut-off is given here; in the data, active = GI50 up to about 1.1 µM and inactive = higher.
result-type: GI50

# example entries with known answers
compound: O=C1/C(=C\c2ccccc2)C2/C(=C\c3ccccc3)C(=O)/C(=C\c3ccccc3)C2/C1=C\c1ccccc1 (configuration not stated)
GI50: 1.69 µM (inactive)

compound: CN(/N=C/c1ccccn1)C1=NCCN1
GI50: > 100 µM (inactive)

compound: C=CC(C)(C)NC(C(=O)N1CCC[C@H]1c1nc(-c2nc(C(=O)OCC=C(C)C)c(C)o2)c(C)o1)C(C)C (some centres not stated)
GI50: 23.3 µM (inactive)

compound: CC(C)=Cc1cc(C)c2c(O)cc(C)c3c2c1C(C)=C(O)C3=O
GI50: 7.85 µM (inactive)

Can you look up the measured GI50 of Oc1cccc2c(Br)ccnc12 for me?
5.71 µM (inactive)

Can you look up the measured GI50 of COc1ccc(/C=C/C(=O)c2cc(OC)cc(OC)c2)cc1 for me?
20.8 µM (inactive)

Can you look up the measured GI50 of CSc1nc(NC2OC(COC(C)=O)C(OC(C)=O)C(OC(C)=O)C2OC(C)=O)c(-c2csc(N)n2)c(=O)n1C (configuration not stated) for me?
23.5 µM (inactive)

---

System: COLO 205
Test: NCI tumour cell line growth inhibition, 48 h
Active and inactive are the calls of the source. Rule as the data show it: active = GI50 up to about 1.1 µM and inactive = higher.
Parameter: GI50. Scope: all listed entries.

# example entries with known answers
compound: COc1ccc(S(=O)(=O)Nc2ccc(-c3csc(N4C(=O)/C(=C/c5cccs5)N=C4c4ccccc4)n3)cc2)cc1Cl
result-type: GI50
value: 40.6 µM (inactive)

compound: O=C(NCC(=O)N1CCOC1=O)OCc1ccccc1
result-type: GI50
value: > 100 µM (inactive)

compound: C/C=C1/CN2CCC34c5ccccc5N(C)C23C2CC1C4(C(=O)OC)C(O)O2 (stereo unspecified)
result-type: GI50
value: > 100 µM (inactive)

compound: Cc1cccc(C)c1NC(=O)/C(CC(=O)CC(c1ccccc1)c1c(O)c2ccccc2oc1=O)=N/O (stereo unspecified)
result-type: GI50
value: > 100 µM (inactive)

Can you look up the measured GI50 of COc1cc(C2c3cc4c(cc3[C@@H](Nc3ccc(Oc5ccccc5)cc3)C3COC(=O)[C@H]23)OCO4)cc(OC)c1O (stereo partly specified) for me?
1.5 µM (inactive)

Can you look up the measured GI50 of S=C(S)N1CCN(c2cccc(Cl)c2)CC1 for me?
76.4 µM (inactive)

Can you look up the measured GI50 of O=C(CC1=Nc2nnc(CCCCCCCc3nnc4n3C(=O)C(CC(=O)c3ccccc3)=N4)n2C1=O)c1ccccc1 for me?
> 100 µM (inactive)

Can you look up the measured GI50 of COc1c(O)cc(/C=C/c2cc(O)cc3c2[C@@]2(C(=O)O3)c3c(O)cc(O)cc3OC2c2cccc(O)c2)cc1O (stereo partly specified) for me?
41.2 µM (inactive)

Can you look up the measured GI50 of C[C@]12CCC(=O)O[C@H]1CCCCO2 for me?
> 100 µM (inactive)

Can you look up the measured GI50 of C=C(C)C1CC[C@@](C)(O)[C@H](C#N)C1 (stereo partly specified) for me?
> 100 µM (inactive)

Can you look up the measured GI50 of COC(=O)c1ccccc1C1CN=NC12Cc1ccc(C)c(C)c1C2=O (stereo unspecified) for me?
53.7 µM (inactive)

---

Tested on: LOX IMVI
Assay: NCI tumour cell line growth inhibition, 48 h
Active and inactive are the calls of the source. No stated cut-off is given here; in the data, active = GI50 up to about 1.1 µM and inactive = higher.
The reply should name one outcome from 1.0 (active), 0.0 (inactive)

Below, 3 molecules whose answers are already recorded.
molecule: CC1(C)N=C(/C(Cl)=[N+](/[O-])C(=O)c2ccc(Cl)cc2)C(C)(C)N1O
measured-on: LOX IMVI
category: 0.0

molecule: O=C(NCCO)c1c(O)c2ccccc2[nH]c1=O
measured-on: LOX IMVI
category: 0.0

molecule: CCCNC(=O)Cn1c(-c2ccccc2)cc2ccccc21
measured-on: LOX IMVI
category: 0.0

For Cn1c(C(O)C2(c3cccnc3)SCCCS2)cc2ccccc21 (stereo not drawn) , which call appears in the assay record?
0.0

---

Test system: ACHN
Assay: NCI tumour cell line growth inhibition, 48 h
Calls of active or inactive are those of the source. Rule as the data show it: active = GI50 up to about 1.1 µM and inactive = higher.
result-type: GI50

# example entries with known answers
compound: Cc1c2ccncc2c(C)c2c1[nH]c1ccc(Cl)cc12
GI50: 1.26 µM (inactive)
//
compound: Cc1cccc2c1N(C(=O)/C=C\C(=O)O)C(c1c(C)[nH]c3ccccc13)C2 (centres undefined)
GI50: 84.3 µM (inactive)
//
compound: O=C1C=CC2(O)OCC3C=C4O[C@@H]5OC6(CCCCC6)O[C@@H]5C4[C@@H]2[C@@H]13 (some centres undefined)
GI50: 26.1 µM (inactive)
//
compound: Cc1cc(S(=O)(=O)NC2=Nc3cccc4cccc(c34)N2)c(S)cc1Cl
GI50: > 100 µM (inactive)

Can you look up the measured GI50 of c1ccc2c(CNCCCCCCCCNCc3cccc4ccccc34)cccc2c1 for me?
2.9 µM (inactive)

---

Test system: K562
Experiment: NCI tumour cell line growth inhibition, 48 h
Active and inactive are the calls of the source. No stated cut-off is given here; in the data, active = GI50 up to about 1.1 µM and inactive = higher.
The reply should name one outcome from active, inactive

Below, 2 compounds whose answers are already recorded.
compound: CN(C)C12C=CC=CC3=C(c4ccccc4)C(c4ccccc4)=C(c4ccccc4)C31c1ccccc1C2 (stereo unspecified)
category: inactive

compound: COc1ccc(N[S+]([O-])c2cccc(C)c2)cc1 (stereo unspecified)
category: inactive

For N=C1C(=N)c2ccccc2-c2ccccc21 , which call appears in the assay record?
active

For O=C1CC(c2ccc(Cl)cc2)C2(C(=O)NC(=O)NC2=O)C(c2ccc(Cl)cc2)C1 (stereo unspecified) , which call appears in the assay record?
inactive

For NC(=O)NC1C(C(=O)O)N(Cc2ccccc2)C(=O)N1Cc1ccccc1 (stereo unspecified) , which call appears in the assay record?
inactive

For C/C=C1/CN2CCC34c5ccccc5N(C)C23C2CC1C4(C(=O)OC)C(O)O2 (stereo unspecified) , which call appears in the assay record?
inactive

---

Tested on: U-251
Assay: NCI tumour cell line growth inhibition, 48 h
The source made the active and inactive calls. No stated cut-off is given here; in the data, active = GI50 up to about 1.1 µM and inactive = higher.
The reply should name one outcome from T (active), F (inactive)

Below, 8 molecules whose answers are already recorded.
molecule: COc1ccc(-c2nc(O)c3ccccc3n2)c(OC)c1
category: F
--
molecule: CC1(C)N=C(c2ccccc2)SC12S[C@@H]1CCCC[C@H]1S2
category: F
--
molecule: C=C1CC[C@@H]2C13[C@@H]1[C@H](CC(=O)[C@@]23C)C1(C)C (stereo partly specified)
category: F
--
molecule: CCCCCCCCCCOCCOCCOCCOCCCCC(O)CCCCCCCC1=C[C@H](C)OC1=O (stereo partly specified)
category: F
--
molecule: O=c1cc(-c2ccccc2)oc2cc(OCCSCCCCCCCCCCSCCOc3ccc4c(=O)cc(-c5ccccc5)oc4c3)ccc12
category: F
--
molecule: COc1cc([N+](=O)[O-])ccc1N1C(=O)C2c3[nH]c4ccccc4c3C3CCC(C(C)(C)C)CC3C2C1=O (stereo unspecified)
category: F
--
molecule: N=C(N)NNC(=O)CCn1[nH]c(=O)c(Cl)c(Cl)c1=O
category: F
--
molecule: COC(=O)/C(=C/c1ccc(OC)cc1)NC(=O)c1ccccc1
category: F

For CO/N=[N+](\[O-])NC(C)C , which call appears in the assay record?
F

For CN(C)CCn1c(=O)c2ccc(NCCN3CCNCC3)c3c(=O)c4ccccc4n(c1=O)c23 , which call appears in the assay record?
T

For N/C(=N\O)N/N=C\c1ccc(O)c(O)c1O , which call appears in the assay record?
F

For CCSc1n/c(=C\c2ccc(N(C)C)cc2)c2nnnn12 , which call appears in the assay record?
F

For COc1ccccc1CNC(=O)[C@H](Cc1ccc(O)cn1)NC(C)=O , which call appears in the assay record?
F

For C/C(=N\Nc1nc2cccnc2s1)c1ccccn1 , which call appears in the assay record?
T

For N#CC(c1ccnc(Cl)n1)c1nc2ccccc2s1 (stereo unspecified) , which call appears in the assay record?
F

For CCOC(=O)/C=C(/C(=O)OCC)n1cc(C)c(=O)n(/C(=C/C(=O)OCC)C(=O)OCC)c1=O , which call appears in the assay record?
F

For COC(=O)C12C3C4C5C3(C#N)C1C5(C(=O)OC)C42C(=O)N(C(C)C)C(C)C (stereo unspecified) , which call appears in the assay record?
F

For CCc1cn2c(/C=N/N=C(N)N)c(-c3cc(C)c(Cl)cc3Cl)nc2s1 , which call appears in the assay record?
F

For COc1ccc2c(c1)CCc1c-2nc2cc3c(cc2c1O)OCO3 , which call appears in the assay record?
F

For CC1=C(C(=O)Nc2cc(=O)n(C)c(=O)n2C)C(c2ccco2)C(C(=O)Nc2cc(=O)n(C)c(=O)n2C)=C(C)N1 , which call appears in the assay record?
F

For Cc1cccc(C)c1NC(=O)/C(CC(=O)CC(c1ccccc1)c1c(O)c2ccccc2oc1=O)=N/O (stereo unspecified) , which call appears in the assay record?
F

For N#CC(C#N)=Cn1c(=S)[nH]c2ccc([N+](=O)[O-])cc21 , which call appears in the assay record?
F
